Values were extracted from paper PMC11327602.

Test details: DPPH free radical scavenging activity
Applied conditions: 50 μM
Measured DPPH % Scavenging values are reported for all entries that follow.
Please respond with the number in % and leave the unit unwritten.

Below, each entry is followed by its recorded DPPH % Scavenging result.
>  <Smiles record>
C=CCN(c1nccs1)S(=O)(=O)c1ccc(OC)cc1

>  <Endpoint>
DPPH % Scavenging

>  <Measured result>
59.6

$$$$
>  <Smiles record>
CN(c1nccs1)S(=O)(=O)c1ccc(Cl)cc1

>  <Endpoint>
DPPH % Scavenging

>  <Measured result>
42.4

$$$$
>  <Smiles record>
Cc1ccc(S(=O)(=O)N(C)c2nccs2)cc1

>  <Endpoint>
DPPH % Scavenging

>  <Measured result>
37.4

$$$$

Dear colleague, I am looking for the recorded DPPH % Scavenging of the following compound: C=CCN(c1nccs1)S(=O)(=O)c1ccccc1 49.1
